molecular target: Rabies virus glycoprotein G, strain CVS-11 (Challenge Virus Standard-11, ATCC VR 959) (Rabies virus, strain CVS-11); assay: cell-based or functional assay
Property Name: Potency (IU/nM) increase versus monovalent (fold)
Numbers only, in fold.

Look over these answered cases.
Binder	Value
214-E8 25GS 212-C12 (VHH) EVQLVESGGGSVQAGGSLRLSCAASGGTFNPYVMAWFRQAPGNEREFVARIRWSGGDAYYDDSVKGRFAITRDAAKNTVHLQMNSLKPEDTAVYYCAAATYGYGSYTYGGSYDLWGQGTQVTVSSGGGGSGGGGSGGGGSGGGGSGGGGSEVQLVESGGGLVQPGGSLRLSCAASGFTFGSSDMSWVRQAPGKGPEWVSGINSGGGRTLYADSVKGRFTISRDNAKNTLYLQMNSLKSEDTAVYYCATDLYGSSWYTDYWSQGTQVTVSS	1.5
214-E8 15GS 212-C12 (VHH) EVQLVESGGGSVQAGGSLRLSCAASGGTFNPYVMAWFRQAPGNEREFVARIRWSGGDAYYDDSVKGRFAITRDAAKNTVHLQMNSLKPEDTAVYYCAAATYGYGSYTYGGSYDLWGQGTQVTVSSGGGGSGGGGSGGGGSEVQLVESGGGLVQPGGSLRLSCAASGFTFGSSDMSWVRQAPGKGPEWVSGINSGGGRTLYADSVKGRFTISRDNAKNTLYLQMNSLKSEDTAVYYCATDLYGSSWYTDYWSQGTQVTVSS	8
213-E6 15GS 213-H7 (VHH) EVQLVESGGGLVQAGASLRLSCAASGSTLSRYGVGWFRQAPGKERELVASVDWSGSRTYYADSVKGRFTISRDNAKNTGYLQMNSLKPDDTAVYYCAADSSVVPGIEKYDDWGLGTQVTVSSGGGGSGGGGSGGGGSEVQLVESGGGLVQAGGSLRLSCAASGRTLSSYRMGWFRQAPGKEREFISTISWNGRSTYYADSVKGRFIFSEDNAKNTVYLQMNSLKPEDTAVYYCAAALIGGYYSDVDAWSYWGPGTQVTVSS	107
214-E8 15GS 214-E8 (VHH) EVQLVESGGGSVQAGGSLRLSCAASGGTFNPYVMAWFRQAPGNEREFVARIRWSGGDAYYDDSVKGRFAITRDAAKNTVHLQMNSLKPEDTAVYYCAAATYGYGSYTYGGSYDLWGQGTQVTVSSGGGGSGGGGSGGGGSEVQLVESGGGSVQAGGSLRLSCAASGGTFNPYVMAWFRQAPGNEREFVARIRWSGGDAYYDDSVKGRFAITRDAAKNTVHLQMNSLKPEDTAVYYCAAATYGYGSYTYGGSYDLWGQGTQVTVSS	31.5
213-E6 25GS 212-C12 (VHH) EVQLVESGGGLVQAGASLRLSCAASGSTLSRYGVGWFRQAPGKERELVASVDWSGSRTYYADSVKGRFTISRDNAKNTGYLQMNSLKPDDTAVYYCAADSSVVPGIEKYDDWGLGTQVTVSSGGGGSGGGGSGGGGSGGGGSGGGGSEVQLVESGGGLVQPGGSLRLSCAASGFTFGSSDMSWVRQAPGKGPEWVSGINSGGGRTLYADSVKGRFTISRDNAKNTLYLQMNSLKSEDTAVYYCATDLYGSSWYTDYWSQGTQVTVSS	4.2

Moving on to the next binder.
Which measured Potency (IU/nM) increase versus monovalent value corresponds to 212-C12 15GS 212-C12 (VHH) EVQLVESGGGLVQPGGSLRLSCAASGFTFGSSDMSWVRQAPGKGPEWVSGINSGGGRTLYADSVKGRFTISRDNAKNTLYLQMNSLKSEDTAVYYCATDLYGSSWYTDYWSQGTQVTVSSGGGGSGGGGSGGGGSEVQLVESGGGLVQPGGSLRLSCAASGFTFGSSDMSWVRQAPGKGPEWVSGINSGGGRTLYADSVKGRFTISRDNAKNTLYLQMNSLKSEDTAVYYCATDLYGSSWYTDYWSQGTQVTVSS ? 4.6
